- experimental.system: HDAC1 (Homo sapiens, UniProt Q13547)
- Sequence (Q13547 whole entry, species assumed): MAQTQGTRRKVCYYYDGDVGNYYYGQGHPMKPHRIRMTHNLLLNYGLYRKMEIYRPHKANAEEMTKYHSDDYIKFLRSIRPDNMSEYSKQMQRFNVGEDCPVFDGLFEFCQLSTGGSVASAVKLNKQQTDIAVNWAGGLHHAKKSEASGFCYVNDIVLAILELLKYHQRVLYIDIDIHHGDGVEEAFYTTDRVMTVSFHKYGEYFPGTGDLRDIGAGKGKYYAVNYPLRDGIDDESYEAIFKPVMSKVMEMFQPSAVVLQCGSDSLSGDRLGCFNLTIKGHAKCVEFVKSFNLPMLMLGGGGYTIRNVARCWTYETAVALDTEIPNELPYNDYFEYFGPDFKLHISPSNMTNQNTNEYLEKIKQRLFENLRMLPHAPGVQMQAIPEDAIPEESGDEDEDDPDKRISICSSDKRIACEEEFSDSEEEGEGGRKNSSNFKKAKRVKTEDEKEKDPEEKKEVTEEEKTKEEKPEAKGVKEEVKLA
- assay.explanation: HDAC biochemical activity measurement (fluorescent substrate deacetylation);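 also: fluorogenic acetyl-lysine substrate (20 µM) deacetylated by HDAC1, then developer releases fluorophore read at 360 nm excitation and 460 nm emission, inhibitor incubated 30 min at 37 °C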
- cond: Table 3, column C; read-out: IC50 HDAC1, C (six-membered ring with substituents)
assay.endpoint: IC50 (nM)
The response must be a number in nM with no trailing unit.

Some compounds with known IC50 results, for comparison:
C/C=C1\NC(=O)c2cc(F)cc(n2)CNC(=O)C[C@@H](/C=C/CCSC(C)=O)OC(=O)[C@H](CC)NC1=O; 32
C/C=C1\NC(=O)c2cc(F)cc(n2)CNC(=O)C[C@@H](/C=C/CCSC(=O)CCC)OC(=O)[C@H](C(C)C)NC1=O; 27
CC(=O)SCC/C=C/[C@@H]1CC(=O)NCc2cc(F)cc(n2)C(=O)NC(=C(C)C)C(=O)N[C@@H](C(C)C)C(=O)O1; 31
C/C=C1\NC(=O)c2cc(F)cc(n2)CNC(=O)C[C@@H](/C=C/CCSC(=O)CCCCCCC)OC(=O)[C@H](C)NC1=O; 13
C/C=C1\NC(=O)c2nc(ccc2F)CNC(=O)C[C@@H](/C=C/CCSC(C)=O)OC(=O)[C@H](Cc2cccc3ccccc23)NC1=O; 63

Next compound, please.
What does the record list as IC50 for C/C=C1\NC(=O)c2nc(ccc2C)CNC(=O)C[C@@H](/C=C/CCSC(C)=O)OC(=O)[C@H](Cc2ccccc2)NC1=O ?
41

====

- System: MCF-7 (human breast cancer cells)
- assay.explanation: MTT cancer cell growth inhibition
- Type: cell-based
- cond: Homo sapiens, MCF7, 72 h, 72 hours incubation, read-out: GI50 MCF
# 1 (yes) = GI50 below 50 nM (exclusive); 0 (no) = GI50 at/above 50 nM

Threshold test, GI50 < 50 nM: C/C=C1\NC(=O)c2cc(F)cc(n2)CNC(=O)C[C@@H](/C=C/CCSC(=O)CCCCCCC)OC(=O)[C@H](Cc2ccccc2)NC1=O
1 (yes)

====

- System: Hela (human cervical cancer cells)
- assay.explanation: MTT cancer cell growth inhibition
- Assay type: cell-based
- cond: Homo sapiens, HeLa, 72 h, Hela cells, MTT, 72 hours incubation; read-out: GI50 Hela
assay.endpoint: GI50 (nM)
The response must be a number in nM with no trailing unit.

Some molecules with known GI50 results, for comparison:
C/C=C1\NC(=O)c2cccc(n2)CNC(=O)C[C@@H](/C=C/CCSC(=O)CCCCCCC)OC(=O)[C@@H](C)NC1=O; 810
C/C=C1\NC(=O)c2ccc(SC)c(n2)CNC(=O)C[C@@H](/C=C/CCSC(=O)CCCCC)OC(=O)[C@H](C(C)C)NC1=O; 40
C/C=C1\NC(=O)c2ccc(SC)c(n2)CNC(=O)C[C@@H](/C=C/CCSC(=O)CCCC)OC(=O)[C@H](C(C)C)NC1=O; 60
CSc1ccc2nc1C(=O)NC(=C(C)C)C(=O)N[C@@H](C(C)C)C(=O)O[C@H](/C=C/CCSC(C)=O)CC(=O)NC2; 20
C/C=C1\NC(=O)c2nc(ccc2SC)CNC(=O)C[C@@H](/C=C/CCS)OC(=O)[C@H](CC)NC1=O; 30
C=C1NC(=O)c2cc(SC)cc(n2)CNC(=O)C[C@@H](/C=C/CCSC(C)=O)OC(=O)[C@H](C)NC1=O; 60
CSc1cc2nc(c1)C(=O)NC(=C(C)C)C(=O)N[C@@H](C(C)C)C(=O)O[C@H](/C=C/CCSC(C)=O)CC(=O)NC2; 80
C/C=C1\NC(=O)c2cc(SC)cc(n2)CNC(=O)C[C@@H](/C=C/CCSC(=O)CCCCCCC)OC(=O)[C@H](CC)NC1=O; 50
C/C=C1\NC(=O)c2cc(SC)cc(n2)CNC(=O)C[C@@H](/C=C/CCS)OC(=O)[C@H](C(C)C)NC1=O; 70
C/C=C1\NC(=O)c2ccc(SC)c(n2)CNC(=O)C[C@@H](/C=C/CCSC(=O)CCCCCCC)OC(=O)[C@H](C)NC1=O; 60

What does the record list as GI50 for C/C=C1\NC(=O)c2ccc(SC)c(n2)CNC(=O)C[C@@H](/C=C/CCSC(C)=O)OC(=O)[C@H](CCCCNC(=O)OCC2c3ccccc3-c3ccccc32)NC1=O ?
70

Request: C/C=C1\NC(=O)c2nc(ccc2SC)CNC(=O)C[C@@H](/C=C/CCSC(C)=O)OC(=O)[C@H](CCCCNC(=O)OCC2c3ccccc3-c3ccccc32)NC1=O
60

Request: C/C=C1\NC(=O)c2nc(ccc2SC)CNC(=O)C[C@@H](/C=C/CCSC(=O)CCCCCC)OC(=O)[C@H](C(C)C)NC1=O
60

Request: C/C=C1\NC(=O)c2nc(ccc2SC)CNC(=O)C[C@@H](/C=C/CCSC(=O)CC)OC(=O)[C@H](C(C)C)NC1=O
80

Request: C/C=C1\NC(=O)c2cc(SCCC)cc(n2)CNC(=O)C[C@@H](/C=C/CCSC(=O)CCCCCCC)OC(=O)[C@H](CC)NC1=O
10

Request: C/C=C1\NC(=O)c2cccc(n2)CNC(=O)C[C@@H](/C=C/CCSC(=O)CCCCCCC)OC(=O)[C@H](CSCC)NC1=O
80

Request: C/C=C1\NC(=O)c2nc(cc(SC)n2)CNC(=O)C[C@@H](/C=C/CCSC(C)=O)OC(=O)[C@H](C)NC1=O
80

Request: C/C=C1\NC(=O)c2nc(ccc2SC)CNC(=O)C[C@@H](/C=C/CCS)OC(=O)[C@H](C(C)C)NC1=O
90

Request: C/C=C1\NC(=O)c2nc(ccc2SC)CNC(=O)C[C@@H](/C=C/CCSC(C)=O)OC(=O)[C@H](Cc2ccc(O)cc2)NC1=O
30

Request: C/C=C1\NC(=O)c2cc(SC)cc(n2)CNC(=O)C[C@@H](/C=C/CCSC(=O)CCCCCC)OC(=O)[C@H](C(C)C)NC1=O
70

Request: C/C=C1\NC(=O)c2ccc(SC)c(n2)CNC(=O)C[C@@H](/C=C/CCSC=O)OC(=O)[C@H](C(C)C)NC1=O
30

Request: C/C=C1\NC(=O)c2cc(SC)cc(n2)CNC(=O)C[C@@H](/C=C/CCSC(C)=O)OC(=O)[C@H](Cc2ccccc2)NC1=O
40

Request: C/C=C1\NC(=O)c2ccc(SC)c(n2)CNC(=O)C[C@@H](/C=C/CCSC(=O)CCCCCC)OC(=O)[C@H](C(C)C)NC1=O
60

Request: C/C=C1\NC(=O)c2ncc(SC)c(n2)CNC(=O)C[C@@H](/C=C/CCSC(C)=O)OC(=O)[C@H](C)NC1=O
90

Where do the numbers come from? From patent US10065990B2.
